Entry source: patent US20080194482A1

- assay-system: T1, rat VPAC2 receptor (rat, UniProt P35000 23-437)
- T1 sequence (looked up): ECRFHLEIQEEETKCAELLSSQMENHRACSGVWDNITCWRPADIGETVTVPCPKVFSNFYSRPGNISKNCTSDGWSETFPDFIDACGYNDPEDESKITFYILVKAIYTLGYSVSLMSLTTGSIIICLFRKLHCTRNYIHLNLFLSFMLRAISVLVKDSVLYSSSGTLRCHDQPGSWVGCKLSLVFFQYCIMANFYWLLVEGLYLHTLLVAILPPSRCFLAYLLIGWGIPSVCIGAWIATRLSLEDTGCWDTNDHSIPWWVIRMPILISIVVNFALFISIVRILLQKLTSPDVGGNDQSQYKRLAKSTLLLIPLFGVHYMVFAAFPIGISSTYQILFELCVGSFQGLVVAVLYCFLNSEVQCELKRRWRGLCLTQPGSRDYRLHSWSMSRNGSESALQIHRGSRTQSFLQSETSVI
- method-notes: cell-based or functional assay
Square brackets hold non-standard residues; d marks the D form. Ends that are not written are not given here. * marks the point of attachment. Orn = NCCC[C@H](N)C(=O)O; Hexanoyl = CCCCCC(=O)*; Aib = CC(C)(N)C(=O)O
Catalogue of Rat VPAC2 Receptor: DiscoveRx (EC50; nM), cAMP generation readings, one per entry.
readout-type: Rat VPAC2 Receptor: DiscoveRx (EC50; nM), cAMP generation

binder: Hexanoyl-HSDAVFTDSYT[Orn]LR[Aib]QVAA[Aib]KYLQSI[Orn]N[Orn]GGPSSGAPPPS [VPAC2 receptor peptide agonist P392]
quantitative-result: 0.08
//
binder: HSDAVFTDNYTXLRXQVAAXKSLQSIXNXGGPSSGAPPPS (N-terminal hexanoyl (C6); Orn at 12, 27 and 29; Aib at 15 and 20) [VPAC2 receptor peptide agonist P385]
quantitative-result: 28.8
//
binder: HSDAVFTDNYTXLRXQSAAXKYLQSIXNXGGPSSGAPPPS (N-terminal hexanoyl (C6); Orn at 12, 27 and 29; Aib at 15 and 20) [VPAC2 receptor peptide agonist P389]
quantitative-result: 0.21
//
binder: Hexanoyl-HSDAVFTDNYTR[Aib]R[Aib]QVAA[Aib]KYLQSIK[Aib]KGGPSSGAPPPS [VPAC2 receptor peptide agonist P405]
quantitative-result: 0.04
//
binder: Hexanoyl-HSDAVFTDNYTQLR[Aib]QVAA[Aib]KYLQSI[Orn]N[Orn]GGPSSGAPPPS [VPAC2 receptor peptide agonist P368]
quantitative-result: 1.33
//
binder: HSDAVFTDNYTXLRXSVAAXKYLQSIXNXGGPSSGAPPPS (N-terminal hexanoyl (C6); Orn at 12, 27 and 29; Aib at 15 and 20) [VPAC2 receptor peptide agonist P390]
quantitative-result: 0.09
